Source of measurements: paper PMC5648786

target: GmPOPB-S577A (inactive mutant) (Galerina marginata, UniProt H2E7Q8, S577A); construct: His-tag (TEV-cleavable) (cleaved yes); made in house; host or cells: E. coli BL21(DE3); experiment: Isothermal titration calorimetry, peptide binding to inactive mutant GmPOPB_S577A; conditions: ITC, peptide titrated into GmPOPB_S577A, 20 °C, 50 mM Tris pH 8.0, 50 mM NaCl, 10 mM DTT, single-site model, n fixed at 1.0; average ± SEM of at least 2 measurements
No end group written: not given here.
Metric: log10 of Kd (log10 of the value in µM)
Heads up, the numbers here are log10 of Kd in µM units.

INSERT INTO measurements (sequence_text, quantitative_result) VALUES
  ('IWGIGCNPWTAEH [13mer]', 0.38),
  ('IWGIGCNPWTAE [12mer]', 1.32),
  ('IWGIGCNPWTA [11mer]', 1.59);

Below are 2 sequences. Give each one its log10 of Kd.
1. IWGIGCNPWTAEHV [14mer]
2. IWGIGCNPWT [10mer]

### Response
[0.98, 1.92]
